PROTOCOL: Terminal half life in iv dosed C57BL/6 mouse measured up to 24 hrs by LC-MS/MS analysis
Assay type: ADME, organism-based
APPLIED CONDITIONS: C57BL/6, mouse, in vivo, read-out: beta t1/2 (converted)
RESULT TYPE: half-life (h)
Numbers only, in h.

The recorded half-life for `CS(=O)(=O)NC(=O)CCc1cn(-c2ccc(Cl)cc2)nc1-c1ccc(Cl)cc1` is 3.6

* * *

Provide the reported beta t1/2 of each item.
PROTOCOL: Terminal half life in iv dosed C57BL/6 mouse measured up to 24 hrs by LC-MS/MS analysis
Assay type: ADME, organism-based
APPLIED CONDITIONS: mouse, in vivo, 24 h
Answers are plain numbers, in h.

// known answers, use as guide
CS(=O)(=O)NC(=O)CCc1cn(-c2ccc(Br)cc2)nc1-c1ccncc1 ... 1.3
CS(=O)(=O)NC(=O)C1CC1c1cn(-c2ccc(Cl)cc2)nc1-c1ccncc1 (stereo not drawn) ... 0.9
CS(=O)(=O)NC(=O)CCc1cn(-c2ccc(Br)cc2)nc1-c1cccnc1 ... 1.7
CS(=O)(=O)NC(=O)CCc1cn(-c2ccc(C(F)(F)F)nc2)nc1-c1ccc(Cl)cc1 ... 3
CS(=O)(=O)NC(=O)CCc1cn(-c2ccc(Br)cc2)nc1C1CCOCC1 ... 2.3
CS(=O)(=O)NC(=O)CCc1cc(-c2ccc(Br)cc2)nn1-c1ccc(Cl)cc1 ... 3.6
CS(=O)(=O)NC(=O)/C=C/c1cn(-c2ccc(Cl)cc2)nc1-c1ccncc1 ... 1.1

Item: `CS(=O)(=O)NC(=O)OCc1cn(-c2ccc(Cl)cc2)nc1-c1ccncc1` | beta t1/2: 5.8

* * *

PROTOCOL: Metabolic stability in mouse liver microsomes assessed as compound remaining at 1 uM by LC-MS/MS analysis
Type: ADME, Microsome
APPLIED CONDITIONS: liver microsomes, read-out: Stabilty
RESULT TYPE: remaining at 1 µM (%)
Answers are plain numbers, in %.

`CS(=O)(=O)NC(=O)CCc1cn(-c2ccc(Cl)cc2)nc1-c1ccc(Cl)cc1` has a reported remaining at 1 µM of 87

* * *

PROTOCOL: Thermodynamic solubility of compound at pH 7.4 aqueous phosphate buffer
RESULT TYPE: solubility thermodynamic (µM)
Numbers only, in µM.

Example entries and their recorded answers appear below.
O=C(O)CCc1cn(-c2ccc(Br)cc2)nc1-c1ccc(Cl)cc1 ... 155
CS(=O)(=O)NC(=O)CCc1sc(-c2ccc(Cl)cc2)nc1-c1ccc(Cl)cc1 ... 90
CS(=O)(=O)NC(=O)CCc1cn(-c2ccc(Br)cc2)nc1-c1cccc(Cl)c1 ... 165
CC(Cc1cn(-c2ccc(Cl)cc2)nc1-c1ccncc1)C(=O)NS(C)(=O)=O (centres undefined) ... 190
CS(=O)(=O)NC(=O)NCc1cn(-c2ccc(Cl)cc2)nc1-c1ccncc1 ... 150

Kindly give each listed record's solubility thermodynamic.
1. CS(=O)(=O)NC(=O)/C=C/c1cn(-c2ccc(Br)cc2)nc1-c1ccncc1
2. O=C(CCc1cn(-c2ccc(Br)cc2)nc1-c1ccc(Cl)cc1)NS(=O)(=O)C1CC1

Resp:
[115, 5]

* * *

Provide the recorded CL free for the entries that follow.
PROTOCOL: Unbound clearance in iv dosed C57BL/6 mouse measured up to 24 hrs by LC-MS/MS analysis
Type: ADME, organism-based
APPLIED CONDITIONS: in vivo
One number for each entry, in L/h/kg.

Examples with their reported CL free follow.
CS(=O)(=O)NC(=O)CCc1cn(-c2ccc(Br)cc2)nc1-c1ccc(Cl)cc1 ... 17.7
CS(=O)(=O)NC(=O)CCc1cn(-c2ccc(Br)cc2)nc1C1CCOCC1 ... 124.3
CS(=O)(=O)NC(=O)NCc1cn(-c2ccc(Cl)cc2)nc1-c1ccncc1 ... 292.7
CS(=O)(=O)NC(=O)CCc1cn(-c2ccc(C(F)(F)F)nc2)nc1-c1ccc(Cl)cc1 ... 112.3
CS(=O)(=O)NC(=O)CCc1cn(-c2ccc(Cl)cc2)nc1-c1ccc(Cl)cc1 ... 6.66

Provide each entry's CL free from the list below.
1. CS(=O)(=O)NC(=O)CCc1cn(-c2ccc(Br)cc2)nc1-c1cccnc1
2. CS(=O)(=O)NC(=O)CCc1cc(-c2ccc(Br)cc2)nn1-c1ccc(Cl)cc1

Resp:
485.5
18.8

* * *

PROTOCOL: Metabolic stability in rat liver microsomes assessed as compound remaining at 1 uM by LC-MS/MS analysis
Type: ADME, Microsome
APPLIED CONDITIONS: microsomes, 1 µM
RESULT TYPE: Stabilty (%)
One number for each entry, in %.

Look up Stabilty for the entries below, preserving their order.
1. CS(=O)(=O)NC(=O)CCc1cn(-c2ccc(Br)cc2)nc1C1CCOCC1
2. CS(=O)(=O)NC(=O)/C=C/c1cn(-c2ccc(Cl)cc2)nc1-c1ccncc1
3. CS(=O)(=O)NC(=O)NCc1cn(-c2ccc(Cl)cc2)nc1-c1ccncc1
4. CS(=O)(=O)NC(=O)CCc1cn(-c2ccc(C(F)(F)F)nc2)nc1-c1ccc(Cl)cc1
5. CS(=O)(=O)NC(=O)CCc1cn(-c2ccc(Br)cc2)nc1-c1ccc(Cl)cc1

Resp:
1. 83
2. 82
3. 98
4. 98
5. 74

# batch size: 5; output Stabilty per entry
1. CS(=O)(=O)NC(=O)NCc1cc(-c2ccc(Br)cc2)oc1-c1ccncc1
2. CS(=O)(=O)NC(=O)C1CC1c1cn(-c2ccc(Cl)cc2)nc1-c1ccncc1 (stereo unspecified)
3. CS(=O)(=O)NC(=O)CCc1cn(-c2ccc(Br)cc2)nc1-c1ccncc1
4. CS(=O)(=O)NC(=O)CCc1cn(-c2ccc(Br)cc2)nc1-c1cccnc1
5. CS(=O)(=O)NC(=O)OCc1cn(-c2ccc(Cl)cc2)nc1-c1ccncc1

Resp:
87
92
94
95
97

// sample `CS(=O)(=O)NC(=O)CCc1cc(-c2ccc(Br)cc2)nn1-c1ccc(Cl)cc1` , its Stabilty was 87

* * *

PROTOCOL: Lipophilicity, logD of the compound at pH 7.4 by HPLC-DAD analysis
Assay type: physicochemical
APPLIED CONDITIONS: buffer
Task for the reader: assign each of the following compounds its reported logD.
One number for each entry.

CS(=O)(=O)NC(=O)CCc1cc(-c2ccc(Br)cc2)nn1-c1ccc(Cl)cc1 ... 2.1
CS(=O)(=O)NC(=O)CCc1cn(-c2ccc(Br)cc2)nc1-c1ccncc1 ... 0.93
CS(=O)(=O)NC(=O)CCc1cn(-c2ccc(C(F)(F)F)nc2)nc1-c1ccc(Cl)cc1 ... 1.87
CS(=O)(=O)NC(=O)CCc1cn(-c2ccc(Br)cc2)nc1-c1cccnc1 ... 0.84
CS(=O)(=O)NC(=O)C1CC1c1cn(-c2ccc(Cl)cc2)nc1-c1ccncc1 (stereo unspecified) ... 1.06

Next:
compound `CS(=O)(=O)NC(=O)OCc1cn(-c2ccc(Cl)cc2)nc1-c1ccncc1` , logD observed: 2.73

* * *

PROTOCOL: AUC (0 to t) in iv dosed C57BL/6 mouse measured up to 24 hrs by LC-MS/MS analysis
Format: ADME, organism-based
Set-up: time <=24
APPLIED CONDITIONS: in vivo
For each entry below, report its AUCt value.
Numbers only, in µmol·min/L.

CS(=O)(=O)NC(=O)/C=C/c1cn(-c2ccc(Cl)cc2)nc1-c1ccncc1 ... 8.7

# return AUCt for each item in the list
1. CS(=O)(=O)NC(=O)CCc1cc(-c2ccc(Br)cc2)nn1-c1ccc(Cl)cc1
2. CS(=O)(=O)NC(=O)CCc1cn(-c2ccc(Br)cc2)nc1C1CCOCC1
3. CS(=O)(=O)NC(=O)NCc1cn(-c2ccc(Cl)cc2)nc1-c1ccncc1

Resp:
1: 1359; 2: 31; 3: 29

Field: AUCt. Fill in for each record below.
1. CS(=O)(=O)NC(=O)NCc1cc(-c2ccc(Br)cc2)oc1-c1ccncc1
2. CS(=O)(=O)NC(=O)C1CC1c1cn(-c2ccc(Cl)cc2)nc1-c1ccncc1 (configuration not stated)
3. CS(=O)(=O)NC(=O)OCc1cn(-c2ccc(Cl)cc2)nc1-c1ccncc1

Resp:
[20, 21, 22]

* * *

PROTOCOL: Lipophilicity, logD of the compound at pH 7.4 by HPLC-DAD analysis
Format: physicochemical
APPLIED CONDITIONS: buffer, read-out: logD
RESULT TYPE: logD
One number for each entry.

`CS(=O)(=O)NC(=O)CCc1cn(-c2ccc(Cl)cc2)nc1-c1ccc(Cl)cc1` yielded logD of 2

* * *

PROTOCOL: Thermodynamic solubility of compound at pH 7.4 aqueous phosphate buffer
For each of the compounds below, state its solubility thermodynamic.
Give bare numbers, in µM.

As a guide, the following entries are already answered.
CC(CC(=O)NS(C)(=O)=O)c1cn(-c2ccc(Cl)cc2)nc1-c1ccncc1 (stereo not given) ... 170
CS(=O)(=O)NC(=O)CCc1cn(-c2ccc(Br)cc2)nc1C1CCCCC1 ... 60

# map each compound to its solubility thermodynamic
1. CS(=O)(=O)NC(=O)CCc1cn(-c2ccc(C#N)cc2)nc1-c1ccc(Cl)cc1
2. CS(=O)(=O)NC(=O)CCc1cn(-c2ccccc2Br)nc1-c1ccc(Cl)cc1
3. CS(=O)(=O)NC(=O)CCc1cc(-c2ccc(Br)cc2)nn1-c1ccc(Cl)cc1
4. CC(=O)NS(=O)(=O)CCc1cn(-c2ccc(Br)cc2)nc1-c1ccc(Cl)cc1
5. CS(=O)(=O)NC(=O)CCc1cn(-c2ccccc2)nc1-c1ccc(Cl)cc1

Resp:
1: 75; 2: 165; 3: 200; 4: 165; 5: 200

Look at each compound and report its solubility thermodynamic.
1. CS(=O)(=O)NC(=O)CCc1cn(C2CCCCC2)nc1-c1ccc(Cl)cc1
2. CS(=O)(=O)NC(=O)CCCc1cn(-c2ccc(Br)cc2)nc1-c1ccc(Cl)cc1
3. CS(=O)(=O)NC(=O)CCc1cn(-c2ccc(Br)cc2)nc1C1CCOCC1
4. CS(=O)(=O)NC(=O)CCc1cn(-c2ccc(Br)cc2)nc1C1CCNCC1

Resp:
200
135
200
196

For the 3 compounds below, give their solubility thermodynamic values.
1. CS(=O)(=O)NC(=O)CCc1cn(-c2ccc(Br)cc2)nc1C1CCN(C=O)CC1
2. CS(=O)(=O)NC(=O)CCc1cc(-c2ccc(Br)cc2)n(-c2ccc(Cl)cc2)n1
3. CS(=O)(=O)NC(=O)CCc1cn(-c2ccc(C(F)(F)F)cc2)nc1-c1ccc(Cl)cc1

Resp:
1. 200
2. 170
3. 50

Field: solubility thermodynamic. Fill in for each record below.
1. CS(=O)(=O)NC(=O)CCc1cn(-c2ccc(Cl)cc2)nc1-c1ccccc1Cl
2. CS(=O)(=O)NC(=O)CCc1cn(-c2ccc(Br)cc2)nc1-c1ccc(Cl)cc1
3. CS(=O)(=O)NC(=O)CCc1cn(-c2ccc(Br)cc2)nc1-c1cnccn1
4. CS(=O)(=O)NC(=O)C1CC1c1cn(-c2ccc(Cl)cc2)nc1-c1ccncc1 (stereo not given)

Resp:
[90, 170, 196, 200]

Values from ChEMBL document CHEMBL4842359
